Tested on: Phl p 5b-reactive T cell clones (TCCs) from allergic patients
Assay: Proliferative reaction of Phl p 5b-reactive T cell clones ([3H]-thymidine incorporation)
Type: cell-based, human
Conditions: T cell-reactive region A; final concentration 0.3 μM
property: Incorporation of [3H]-thymidine into TCC JR 13 (stimulation index class)

[[record]]
molecule = "rPhl p 5b deletion mutant DM3 (deletion A154-T177, A220T) (protein) ADAGYAPATPAAAGAAAGKATTEEQKLIEDINVGFKAAVAAAASVPAADKFKTFEAAFTSSSKAAAAKAPGLVPKLDAAYSVAYKAAVGATPEAKFDSFVASLTEALRVIAGALEVHAVKPVTEEPGMAKIPAGELQIIDKIDAAFKVAATAAGGAYDTYKCIPSLEAAVKQAYAATVAAAPQVKYAVFEAALTKTITAMSEVQKVSQPATGAATVAAGAATTAAGAASGAATVAAGGYKV"
value = "+++ (>10 (+++))"

[[record]]
molecule = "rPhl p 5b point mutant PM1 (N32D, D49L, K50A) (protein) ADAGYAPATPAAAGAAAGKATTEEQKLIEDIDVGFKAAVAAAASVPAALAFKTFEAAFTSSSKAAAAKAPGLVPKLDAAYSVAYKAAVGATPEAKFDSFVASLTEALRVIAGALEVHAVKPVTEEPGMAKIPAGELQIIDKIDAAFKVAATAAATAPADDKFTVFEAAFNKAIKESTGGAYDTYKCIPSLEAAVKQAYAATVAAAPQVKYAVFEAALTKAITAMSEVQKVSQPATGAATVAAGAATTAAGAASGAATVAAGGYKV"
value = "+++ (>10 (+++))"

